experiment: NCI Yeast Anticancer Drug Screen. Data for the bub3 strain (AID 167); settings: S. cerevisiae bub3 mutant strain, at 5.0 µM (retest, dose inferred, filed as 0.5)
Compounds without any hit were thinned out: in the full panel of roughly 79,000, 15% have a hit. The source made the active and inactive calls. Rule as the data show it: active = growth inhibition above about 70%; inactive = the rest.
Pick one and only one: Yes (active), No (inactive)

Example entries and their recorded answers appear below.
| COMPOUND | CLASSIFICATION |
| --- | --- |
| CC1=NOC(=O)/C1=C/C=C/c1ccccc1 | No |
| C#CC[N+](CC)(CC)CCNC(=O)CCCCCCCCCCCCCCC | Yes |
| Cc1cc(C)c(CCCC(=O)c2c(C)cc(C)cc2C)c(C)c1 | No |
| O=C(C[n+]1ccccc1Cl)c1ccc(F)cc1 | No |
| CCC(=O)OC1CCC(C2CCCCC2)CC1 (stereo unspecified) | No |

Then this compound:
What outcome does the record of this test show for `CC(=O)c1ccc(Cl)c(N=Cc2cc(Br)ccc2O)c1` ? No
